src = ChEMBL document CHEMBL1201862

System: T47D
Assay: NCI tumour cell line growth inhibition, 48 h
Activity calls are given as the source filed them. Cut-off read from the data, not from the text of the source: active = GI50 up to about 1.1 µM and inactive = higher.
Output constraint: value belongs to True (active), False (inactive)

q: Call for entry Nc1nc(-[n+]2ccc(-c3ccncc3)cc2)nc(Cl)c1Cl :
a: False

Further cases:
q: Call for entry CCCCC1C=Cn2c(=O)oc3c(OC(C)C)c(C)c(O)c1c32 (stereo unspecified) :
a: False

q: Call for entry CN1CCCCC(C#N)(c2ccccc2)CC1 (stereo unspecified) :
a: False

q: Call for entry C=C(CC(=O)Nc1ccc(C(=O)OC)o1)C(=O)OC :
a: False

q: Call for entry COc1cc(=O)oc(/C=C/C=C/C=C/C(C)=C\C2(C)OC(C)C(C)(O)C2O)c1C (stereo unspecified) :
a: False

q: Call for entry CC(=O)OCC1OC(n2c3c(c(-c4ccco4)c(C#N)c2=S)CCCC3)C(OC(C)=O)C(OC(C)=O)C1OC(C)=O (stereo unspecified) :
a: False

q: Call for entry O=C1/C(=C\c2cccs2)Oc2ccccc21 :
a: False

q: Call for entry CC12CCC(C1)C(C)(C)C2OC(=O)c1ccccc1C(=O)O (stereo unspecified) :
a: False

q: Call for entry CC(C)n1c2c([n+](C)c1/C=C/c1ccccc1)C(=O)c1ccccc1C2=O :
a: True

q: Call for entry COc1ccc(CCN2COc3ccc4ccc(=O)oc4c3C2)cc1OC :
a: False

q: Call for entry COc1ccc([N+](=O)[O-])c2c(NCCCN(C)C)ccnc12 :
a: False
